# target.system: BaAAO (Bjerkandera adusta, UniProt A0ABF7PQ87)
# Sequence (A0ABF7PQ87 entry or part of it): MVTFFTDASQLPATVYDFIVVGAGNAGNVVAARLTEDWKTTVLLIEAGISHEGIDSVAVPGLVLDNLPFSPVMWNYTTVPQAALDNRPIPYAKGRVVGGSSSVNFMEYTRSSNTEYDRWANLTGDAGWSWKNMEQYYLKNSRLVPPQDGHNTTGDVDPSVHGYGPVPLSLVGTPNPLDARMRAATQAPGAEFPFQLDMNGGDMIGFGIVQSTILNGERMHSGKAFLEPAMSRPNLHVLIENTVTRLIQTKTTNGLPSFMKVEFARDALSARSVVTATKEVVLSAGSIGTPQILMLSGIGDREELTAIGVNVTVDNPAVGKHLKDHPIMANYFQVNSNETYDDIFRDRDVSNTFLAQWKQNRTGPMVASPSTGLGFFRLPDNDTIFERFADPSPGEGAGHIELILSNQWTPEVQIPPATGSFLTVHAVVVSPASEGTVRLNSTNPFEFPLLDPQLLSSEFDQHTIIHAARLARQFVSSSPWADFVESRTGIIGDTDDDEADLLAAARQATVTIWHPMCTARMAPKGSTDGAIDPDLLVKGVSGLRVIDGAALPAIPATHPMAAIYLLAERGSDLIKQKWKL
# conditions: read-out: K d(acid), K d = k off/k on, pH 6.0, 12 °C
measured.parameter: Kd (µM)
Response body: numeric value in µM, unit text excluded.

Which Kd is listed for COc1ccc(C(=O)O)cc1Cl ?
276

* * *

# target.system: UniProt:A0ABF7PQ87
# experimental.protocol: biochemical
measured.parameter: pKd
pKd is a log-scale quantity: -log10 of the concentration expressed in molar.

Which pKd is reported for this compound? COc1ccc(C(=O)O)cc1
2.74

* * *

# target.system: PeAAO (Pleurotus eryngii, UniProt O94219)
# Sequence (O94219 entry or part of it): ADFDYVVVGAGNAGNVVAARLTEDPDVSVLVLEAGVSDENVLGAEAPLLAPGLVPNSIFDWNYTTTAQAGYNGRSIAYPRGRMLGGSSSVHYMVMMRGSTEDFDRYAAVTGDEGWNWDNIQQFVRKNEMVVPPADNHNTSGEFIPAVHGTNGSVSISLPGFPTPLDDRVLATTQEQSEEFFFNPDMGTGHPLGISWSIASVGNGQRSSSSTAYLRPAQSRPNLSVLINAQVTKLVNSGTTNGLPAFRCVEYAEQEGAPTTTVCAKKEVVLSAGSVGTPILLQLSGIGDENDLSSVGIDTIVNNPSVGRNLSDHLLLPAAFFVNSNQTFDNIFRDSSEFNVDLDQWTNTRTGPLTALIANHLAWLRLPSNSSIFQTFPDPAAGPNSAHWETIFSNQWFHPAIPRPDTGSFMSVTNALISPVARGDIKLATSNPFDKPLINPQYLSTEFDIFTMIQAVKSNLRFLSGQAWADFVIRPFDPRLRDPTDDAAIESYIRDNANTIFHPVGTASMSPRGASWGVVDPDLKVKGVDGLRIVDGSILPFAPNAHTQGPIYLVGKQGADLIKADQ
# experimental.protocol: Stopped-flow reductive half-reaction (flavin reduction by alcohol)
# Format: biochemical
# conditions: anaerobic, 50 mM sodium phosphate, pH 6.0, 25 °C, read-out: K d(alcohol)
measured.parameter: pKd
// pKd here means minus log10 of the molar concentration (mol/L)

Query (molecule): COc1ccc(CO)cc1Cl ; field requested: pKd
4.68

* * *

# target.system: PeAAO (Pleurotus eryngii)
# experimental.protocol: Isothermal titration calorimetry with BQ
# Format: binding
measured.parameter: pKd
The scale used: pKd is minus the common logarithm of the concentration in molar units.

pKd for O=C1C=CC(=O)C=C1 [BQ, 1,4-benzoquinone] ?
4.57
